Sourced from patent US8906904B2

Molecular target: human soluble guanylate cyclase alpha 1 and beta 1 subunits (sGC) (Homo sapiens, UniProt Q02108+Q02153)
Sequence (Q02108 whole entry): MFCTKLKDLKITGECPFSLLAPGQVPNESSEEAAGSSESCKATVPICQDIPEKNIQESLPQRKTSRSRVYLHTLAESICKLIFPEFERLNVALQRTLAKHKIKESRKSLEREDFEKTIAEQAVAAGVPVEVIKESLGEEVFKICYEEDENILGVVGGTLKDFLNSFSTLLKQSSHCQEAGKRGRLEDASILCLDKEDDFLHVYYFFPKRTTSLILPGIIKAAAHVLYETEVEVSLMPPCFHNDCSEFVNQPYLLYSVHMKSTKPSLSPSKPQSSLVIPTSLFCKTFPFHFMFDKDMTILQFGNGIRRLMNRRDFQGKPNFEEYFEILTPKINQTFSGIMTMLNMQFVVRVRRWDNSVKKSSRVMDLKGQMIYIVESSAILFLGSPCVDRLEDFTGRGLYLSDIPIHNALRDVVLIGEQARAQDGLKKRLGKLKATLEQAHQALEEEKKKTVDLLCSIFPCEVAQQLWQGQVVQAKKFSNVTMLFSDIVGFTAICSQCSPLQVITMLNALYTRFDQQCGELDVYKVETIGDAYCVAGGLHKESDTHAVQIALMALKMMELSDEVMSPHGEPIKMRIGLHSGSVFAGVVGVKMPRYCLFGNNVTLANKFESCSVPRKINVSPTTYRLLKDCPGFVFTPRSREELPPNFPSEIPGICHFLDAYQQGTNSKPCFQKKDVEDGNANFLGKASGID
Sequence (Q02153 whole entry): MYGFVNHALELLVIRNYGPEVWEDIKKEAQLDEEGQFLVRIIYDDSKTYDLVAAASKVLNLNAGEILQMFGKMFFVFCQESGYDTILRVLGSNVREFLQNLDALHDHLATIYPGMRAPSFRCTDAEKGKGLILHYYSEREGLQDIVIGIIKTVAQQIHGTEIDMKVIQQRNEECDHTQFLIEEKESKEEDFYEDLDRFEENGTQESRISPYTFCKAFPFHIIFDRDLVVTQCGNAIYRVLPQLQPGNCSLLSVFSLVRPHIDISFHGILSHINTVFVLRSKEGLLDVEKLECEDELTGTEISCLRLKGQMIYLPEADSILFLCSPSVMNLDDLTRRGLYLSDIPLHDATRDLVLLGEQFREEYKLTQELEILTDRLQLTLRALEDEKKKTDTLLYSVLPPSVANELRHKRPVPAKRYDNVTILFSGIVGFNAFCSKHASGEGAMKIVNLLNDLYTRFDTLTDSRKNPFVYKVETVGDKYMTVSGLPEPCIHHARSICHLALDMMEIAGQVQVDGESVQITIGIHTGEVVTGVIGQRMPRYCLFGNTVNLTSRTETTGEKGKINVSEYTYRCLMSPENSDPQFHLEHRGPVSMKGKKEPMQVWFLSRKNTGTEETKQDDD
Experiment: sGC cellular activator assay (cGMP, HTRF)
Details: CHO cells stably expressing human sGC alpha 1/beta 1, preincubated with 40 microM ODQ; cGMP readout; assay run with and without 50% human serum, Table 2 does not say which
pEC50: −log10 of the molar value.
Endpoint label: pEC50

(a) COc1c(C(=O)O)cnn1-c1cccc(-c2cccc(C)c2OCc2ccc3c(c2Cl)CCN(C2COC2)C3)n1 [Compound 17]
(b) Cc1cccc(-c2cccc(-n3ncc(C(=O)O)c3OC(C)C)n2)c1OCc1ccc2c(c1)CCN([C@H]1CCOC1)C2 [Compound 111]
Hello, I am sorting some records. Could you say if a or b has the smaller pEC50 value? I would appreciate it if you answered with the label of your choice. b
(b: 7.00, a: 7.74)
